Overview of reported Total Cell Count across a group of compounds:
- Tested on: HEK-293T
- ASSAY PROCEDURE: Multiplex assay against HEK293T
- Assay type: toxicity, cell-based
- APPLIED CONDITIONS: human, 12 h, 1 µM, compound concentration 1 uM, replicate 2
Answer with a number only.

Example results:
[
  {
    "COMPOUND": "C=CC(=O)Nc1cccc(Oc2nc(Nc3ccc(N4CCN(C)CC4)cc3OC)ncc2Cl)c1",
    "VALUE KIND": "Total Cell Count",
    "READOUT VALUE": 1025
  },
  {
    "COMPOUND": "C=CC(=O)Nc1cccc(Sc2nc(Nc3ccc(N4CCN(C)CC4)cc3)ncc2Cl)c1",
    "VALUE KIND": "Total Cell Count",
    "READOUT VALUE": 1010
  },
  {
    "COMPOUND": "CNC(=O)Nc1ccc(-c2nc(N3CC4CCC(C3)O4)c3cnn(C4CCC5(CC4)OCCO5)c3n2)cc1",
    "VALUE KIND": "Total Cell Count",
    "READOUT VALUE": 155
  },
  {
    "COMPOUND": "CC(C)OC(=O)N1CCC(Oc2ncnc3c2cnn3-c2ccc(S(C)(=O)=O)cc2F)CC1",
    "VALUE KIND": "Total Cell Count",
    "READOUT VALUE": 220
  },
  {
    "COMPOUND": "CC(C)CC(=O)Nc1[nH]nc2c1CN(C(=O)C1CCN(C)CC1)C2(C)C",
    "VALUE KIND": "Total Cell Count",
    "READOUT VALUE": 1420
  }
]

q: Identify measured Total Cell Count corresponding to CC1=C(C(=O)Nc2cc3cn[nH]c3cc2F)C(c2ccc(C(F)(F)F)cc2)CC(=O)N1 (stereo not given)
a: 235

q: Identify measured Total Cell Count corresponding to CCc1ccc(OCc2ccccc2C(=O)Nc2ccc3nc(C)cc(N)c3c2)cc1.Cl
a: 146

q: Identify measured Total Cell Count corresponding to COc1ccc(-c2ccc3ncc4c(c3c2)n(-c2ccc(N3CCNCC3)c(C(F)(F)F)c2)c(=O)n4C)cn1.O=C(O)/C=C\C(=O)O
a: 162

q: Identify measured Total Cell Count corresponding to CNC(=O)Nc1ccc2c(c1)[C@@]1(CC2)OC(=O)N(CC(=O)N(Cc2ccc(F)cc2)[C@@H](C)C(F)(F)F)C1=O
a: 1325

q: Identify measured Total Cell Count corresponding to O=C(c1cc2c(cc1F)OC(c1ccc(F)cc1)(c1ccc(Cl)cc1Cl)O2)N1CCOCC1 (stereo not given)
a: 268

q: Identify measured Total Cell Count corresponding to CC(C)NC(=O)N1CC[C@H](NC2=Nc3cc(F)ccc3N(CC(F)F)c3ccc(Cl)cc32)C1
a: 304

q: Identify measured Total Cell Count corresponding to C=CC(=O)Nc1ccc2[nH]c(=O)n(C3CCN(Cc4ccc(-c5nc6cc[nH]c(=O)c6cc5-c5ccccc5)cc4)CC3)c2c1
a: 1375

q: Identify measured Total Cell Count corresponding to Cc1ccc(C)c(Oc2ccncc2C(=O)N2CCN(C3CC3)c3ccccc32)c1
a: 221

q: Identify measured Total Cell Count corresponding to Cc1c[nH]c2nccc(Oc3c(F)cc(Nc4cc(Cl)nc(N)n4)cc3F)c12
a: 236

q: Identify measured Total Cell Count corresponding to Cc1ccccc1C(c1ccccc1C)N1C2CCC1CC(O)(c1ccccc1)C2 (stereo not given)
a: 261
